Target: Beta-galactoside alpha-2,6-sialyltransferase 1 (Homo sapiens)
Sequence (P15907 whole entry): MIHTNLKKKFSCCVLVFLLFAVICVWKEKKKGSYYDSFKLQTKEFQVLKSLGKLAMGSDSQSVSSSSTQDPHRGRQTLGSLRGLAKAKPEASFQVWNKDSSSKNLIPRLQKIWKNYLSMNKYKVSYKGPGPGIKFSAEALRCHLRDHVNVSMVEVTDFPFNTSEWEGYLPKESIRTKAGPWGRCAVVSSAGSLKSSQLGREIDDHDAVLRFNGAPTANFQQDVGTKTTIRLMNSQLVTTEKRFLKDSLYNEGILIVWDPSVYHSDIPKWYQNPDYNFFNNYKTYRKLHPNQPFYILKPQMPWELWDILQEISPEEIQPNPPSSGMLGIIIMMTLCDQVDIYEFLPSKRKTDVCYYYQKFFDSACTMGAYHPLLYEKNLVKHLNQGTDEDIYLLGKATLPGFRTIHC
Test: Inhibition of recombinant human ST6Gal I incubated for 1 hrs in the presence of CMP-Neu5Ac as donor and LacNAc as acceptor by luminescence based CMP-Glo assay
pKi: −log10 of the molar value.
measurementLabel: pKi

Previously resolved entries follow.
compound	pKi
O=c1ccn([C@@H]2O[C@H](COCc3cn(C(c4cccc(Oc5ccccc5)c4)P(=O)(O)O)nn3)[C@@H](O)[C@H]2O)c(=O)[nH]1 (stereo in doubt; 13a-(s))	4.40
O=c1ccn([C@@H]2O[C@H](COCc3cn(C(c4cccc(OC(F)(F)C(F)F)c4)P(=O)(O)O)nn3)[C@@H](O)[C@H]2O)c(=O)[nH]1 (stereo in doubt; 13f-(l))	5.47
O=c1ccn([C@@H]2O[C@H](COCc3cn(C(c4cccc(Oc5ccccc5)c4)P(=O)(O)O)nn3)[C@@H](O)[C@H]2O)c(=O)[nH]1 (stereo in doubt; 13a-(l))	4.30
O=c1ccn([C@@H]2O[C@H](COCc3cn(C(c4cccc(OC(F)(F)C(F)F)c4)P(=O)(O)O)nn3)[C@@H](O)[C@H]2O)c(=O)[nH]1 (single isomer, unassigned)	5.17

a. O=c1ccn([C@@H]2O[C@H](COCc3cn(C(c4ccc(F)c(Oc5ccccc5)c4)P(=O)(O)O)nn3)[C@@H](O)[C@H]2O)c(=O)[nH]1 (stereo in doubt; 13c-(s))
b. O=c1ccn([C@@H]2O[C@H](COCc3cn(C(c4ccc(F)c(Oc5ccccc5)c4)P(=O)(O)O)nn3)[C@@H](O)[C@H]2O)c(=O)[nH]1 (stereo in doubt; 13c-(l))
Problem: I'd appreciate it if you could identify which of a and b has the greater pKi. Give the label under which the chosen entry appears.
Result: a
(a: 5.22, b: 4.47)

====

Biological target: Beta-galactoside alpha-2,6-sialyltransferase 1 (Homo sapiens) (UniProt P15907)
Test: Inhibition of recombinant human ST6Gal I at 10 uM incubated for 1 hrs in the presence of CMP-Neu5Ac as donor and LacNAc as acceptor by luminescence based CMP-Glo assay relative to control
measurementLabel: inhibition (%)

molecule	inhibition / %
O=c1ccn([C@@H]2O[C@H](COCc3cn(C(c4cccc(Oc5ccccc5)c4)P(=O)(O)O)nn3)[C@@H](O)[C@H]2O)c(=O)[nH]1 (stereo in doubt; 13a-(l))	26

P. O=c1ccn([C@@H]2O[C@H](COCc3cn(C(c4cccc(C(F)(F)F)c4)P(=O)(O)O)nn3)[C@@H](O)[C@H]2O)c(=O)[nH]1 (single isomer, unassigned; form 1)
Q. O=c1ccn([C@@H]2O[C@H](COCc3cn(C(c4cccc(OC5CCCC5)c4)P(=O)(O)O)nn3)[C@@H](O)[C@H]2O)c(=O)[nH]1 (single isomer, unassigned)
Problem: Select one. Lower inhibition: P or Q Write down the label of the entry you select.
Result: P
